The reported numbers originate from ChEMBL document CHEMBL1140910.

Test system Prothrombin (Bos taurus, UniProt P00735), pKi listed for each of the compounds.
Field pKi (float): negative decimal logarithm of the concentration in molar.

INSERT INTO assay_data (smiles_text, recorded_number) VALUES
  ('O=C(Nc1cccc(OCc2ccc(-c3c(F)cc(F)cc3F)cc2)c1)C1CCNCC1', 4.57);

INPUT: Look up pKi: N=C(N)N1CCC(C(=O)Nc2cccc(OCc3ccc(-c4ccccc4)cc3)c2)CC1
OUTPUT: 4.39

---

- assay_system: Prothrombin (Bos taurus) (UniProt P00735)
- assay: Inhibition of bovine factor 2a at 250 uM by amydolitic assay
property: inhibition

INSERT INTO results (compound, property, result) VALUES
  ('CCCCCCOc1ccc(NC(=O)C2CCCNC2)cc1 (stereo unspecified)', 'inhibition', '< 30%'),
  ('O=C(Nc1cccc(OCc2ccc(-c3ccc(C(F)(F)F)cc3)cc2)c1)C1CCNCC1', 'inhibition', '< 30%'),
  ('O=C(Nc1cccc(OCc2ccccc2)c1)C1CCCNC1 (stereo unspecified)', 'inhibition', '< 30%'),
  ('O=C(Nc1cccc(OCc2ccc(-c3cc(F)cc(F)c3)cc2)c1)C1CCNCC1', 'inhibition', '< 30%'),
  ('O=C(Nc1cccc(OCc2ccc(-c3ccccc3)cc2)c1)C1CCNCC1', 'inhibition', '< 30%');

INPUT: Look up inhibition: O=C(Nc1cccc(OCc2ccc(-c3ccccc3)cc2)c1)C1CCCNC1 (stereo unspecified)
OUTPUT: < 30%

INPUT: Look up inhibition: O=C(Nc1ccc(OCc2ccc(-c3ccccc3)cc2)cc1)C1CCNCC1
OUTPUT: < 30%

INPUT: Look up inhibition: O=C(Nc1cccc(OCc2ccc(-c3cccc(F)c3F)cc2)c1)C1CCNCC1
OUTPUT: < 30%

INPUT: Look up inhibition: O=C(Nc1cccc(OCc2ccc(F)cc2)c1)C1CCNCC1
OUTPUT: < 30%

INPUT: Look up inhibition: O=C(Nc1ccc(OCc2ccc(F)cc2)cc1)C1CCCNC1 (stereo unspecified)
OUTPUT: < 30%

INPUT: Look up inhibition: O=C(Nc1ccc(OCc2ccc(-c3ccccc3)cc2)cc1)C1CCCNC1 (stereo unspecified)
OUTPUT: < 30%
